- Target desc: SMYD2 (Homo sapiens)
- Construct: Full length SMYD2 (NP_064582.2) was cloned; His6 (N, cleaved yes); FLAG (N); made in house; host or cells: Sf9 insect cells
- Sequence (Q9NRG4 whole entry): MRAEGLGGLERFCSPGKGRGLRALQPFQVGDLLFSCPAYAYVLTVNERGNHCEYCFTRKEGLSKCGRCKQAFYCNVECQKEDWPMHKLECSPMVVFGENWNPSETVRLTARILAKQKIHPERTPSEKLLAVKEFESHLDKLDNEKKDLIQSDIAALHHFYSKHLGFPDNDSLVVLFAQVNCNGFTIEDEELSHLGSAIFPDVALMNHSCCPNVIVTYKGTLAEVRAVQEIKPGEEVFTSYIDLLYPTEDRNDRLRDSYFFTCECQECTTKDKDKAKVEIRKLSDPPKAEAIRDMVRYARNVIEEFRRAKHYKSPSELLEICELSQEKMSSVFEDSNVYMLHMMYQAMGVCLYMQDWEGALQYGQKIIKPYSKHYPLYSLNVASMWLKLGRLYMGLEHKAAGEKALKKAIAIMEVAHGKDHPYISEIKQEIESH
- Assay summary: SMYD2 biochemical assay (3H-SAM, biotinylated peptide substrate, Flashplate)
- Measurement setup: Table 4; average of n = 1 to n = 50; read-out: SMYD2 Biochem IC50
Catalogue of IC50 values

Molecule	IC50 [µM]
C[C@@H]1CN(Cc2ccc(OCc3ccccc3)cc2)C[C@@H]1NC(=O)c1cn(C2CC2)nn1 (stereo in doubt) [compound 131]	0.46
CC(C)N1C[C@H](CO)[C@H](NC(=O)c2cc(C3CC3)cnn2)C1 (racemic) [compound 129]	0.77
CC(C)N1C[C@H](C)[C@H](NC(=O)c2cn(C3CC3)cn2)C1 (stereo in doubt) [compound 123]	2.2
CC(C)N1CC(NC(=O)c2cc(C3CC3)cnn2)CC1C (stereo not shown) [compound 125]	11.5
C[C@H]1CN(Cc2ccc(OCc3ccccc3)cc2)C[C@@H]1NC(=O)c1cc(C2CC2)cnn1 (racemic) [compound 132]	2.7
CC(C)N1C[C@@H](N(C)C(=O)c2cc(C3CC3)cnn2)[C@@H](C)C1 (racemic) [compound 130]	6.4
CC(C)c1cnnc(C(=O)N[C@@H]2CN(C(C)C)C[C@@H]2C)c1 (racemic) [compound 124]	10.4
